Numbers sourced from patent US6057371A.

Ratio 5-HT1A /σ: recorded values
# Tested on: 5-HT1A receptor (Rattus norvegicus, UniProt P19327)
# Sequence (P19327 whole entry): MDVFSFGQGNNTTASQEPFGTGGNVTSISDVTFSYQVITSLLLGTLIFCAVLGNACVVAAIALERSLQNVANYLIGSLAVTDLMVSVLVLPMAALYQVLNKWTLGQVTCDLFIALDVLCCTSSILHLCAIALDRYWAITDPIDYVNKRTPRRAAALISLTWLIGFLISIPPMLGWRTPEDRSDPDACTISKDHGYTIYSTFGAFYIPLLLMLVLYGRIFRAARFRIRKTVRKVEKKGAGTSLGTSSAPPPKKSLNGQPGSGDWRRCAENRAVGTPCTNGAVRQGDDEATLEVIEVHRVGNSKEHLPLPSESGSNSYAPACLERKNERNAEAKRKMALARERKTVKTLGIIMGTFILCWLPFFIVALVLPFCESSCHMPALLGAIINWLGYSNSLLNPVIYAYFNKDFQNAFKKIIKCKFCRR
# Assay overview: biochemical
# Assay type: binding
# Design: 47: 529-540 (1986); from tissue; host or cells: brain tissue, inferred from the cited method (rat frontal cortex)
Measured metric: Ratio 5-HT1A /σ

[[record]]
molecule = "COc1ccc(CC(C)NCCCc2ccccc2)cc1 (stereo not drawn)"
measured_metric = "Ratio 5-HT1A /σ"
test_value = 7.6

[[record]]
molecule = "C[C@@H](Cc1ccccc1)NCCCCCc1ccccc1"
measured_metric = "Ratio 5-HT1A /σ"
test_value = 100

[[record]]
molecule = "OC1(c2ccccc2)CCN(CCCc2ccccc2)CC1"
measured_metric = "Ratio 5-HT1A /σ"
test_value = 970

[[record]]
molecule = "c1ccc(CCCNC2CCc3ccccc3CC2)cc1"
measured_metric = "Ratio 5-HT1A /σ"
test_value = 30

[[record]]
molecule = "CC(Cc1ccc(I)cc1)NCCCc1ccccc1 (racemic)"
measured_metric = "Ratio 5-HT1A /σ"
test_value = 13

[[record]]
molecule = "C[C@@H](Cc1ccccc1)NCCCCc1ccccc1"
measured_metric = "Ratio 5-HT1A /σ"
test_value = 40

